All values here come from ChEMBL document CHEMBL2062435.

// reported MIC per item
Test system: Enterococcus faecalis
assay: Antimicrobial activity against Enterococcus faecalis 10-5 after 18-24 hrs by two-fold serial dilution method
Assay type: functional
outcome.measure: MIC (µg/mL)

molecule="COc1ccc(OC)c(CO/N=C2\\CN(c3nc4c(cc3F)c(=O)c(C(=O)O)cn4C3CC3)CC2CN)c1.CS(=O)(=O)O (racemic)" target_of_assay="Enterococcus faecalis" outcome_measure=MIC reported=0.25
molecule="COc1ccc(CO/N=C2\\CN(c3nc4c(cc3F)c(=O)c(C(=O)O)cn4C3CC3)CC2CN)c([N+](=O)[O-])c1OC.CS(=O)(=O)O (racemic)" target_of_assay="Enterococcus faecalis" outcome_measure=MIC reported=1
molecule="COc1cc(CO/N=C2\\CN(c3nc4c(cc3F)c(=O)c(C(=O)O)cn4C3CC3)CC2CN)ccc1OC(F)F.CS(=O)(=O)O (racemic)" target_of_assay="Enterococcus faecalis" outcome_measure=MIC reported=2
molecule="COc1cc(F)c(CO/N=C2\\CN(c3nc4c(cc3F)c(=O)c(C(=O)O)cn4C3CC3)CC2CN)cc1OC.CS(=O)(=O)O (racemic)" target_of_assay="Enterococcus faecalis" outcome_measure=MIC reported=0.25
molecule="COc1cc(CO/N=C2\\CN(c3nc4c(cc3F)c(=O)c(C(=O)O)cn4C3CC3)CC2CN)cc(Cl)c1OC.CS(=O)(=O)O (racemic)" target_of_assay="Enterococcus faecalis" outcome_measure=MIC reported=0.25
molecule="COc1cc(CO/N=C2\\CN(c3nc4c(cc3F)c(=O)c(C(=O)O)cn4C3CC3)CC2CN)cc(OC)c1OC.CS(=O)(=O)O (racemic)" target_of_assay="Enterococcus faecalis" outcome_measure=MIC reported=1
molecule="CS(=O)(=O)O.NCC1CN(c2nc3c(cc2F)c(=O)c(C(=O)O)cn3C2CC2)C/C1=N\\OCc1ccccc1 (racemic)" target_of_assay="Enterococcus faecalis" outcome_measure=MIC reported=1
molecule="CS(=O)(=O)O.NCC1CN(c2nc3c(cc2F)c(=O)c(C(=O)O)cn3C2CC2)C/C1=N\\OCc1ccc(OCc2ccccc2)cc1 (racemic)" target_of_assay="Enterococcus faecalis" outcome_measure=MIC reported=8
molecule="COc1ccc(CO/N=C2\\CN(c3nc4c(cc3F)c(=O)c(C(=O)O)cn4C3CC3)CC2CN)c(Cl)c1OC.CS(=O)(=O)O (racemic)" target_of_assay="Enterococcus faecalis" outcome_measure=MIC reported=0.25
molecule="COc1ccc(CO/N=C2\\CN(c3nc4c(cc3F)c(=O)c(C(=O)O)cn4C3CC3)CC2CN)cc1OC.CS(=O)(=O)O (racemic)" target_of_assay="Enterococcus faecalis" outcome_measure=MIC reported=0.5
molecule=C[C@H]1COc2c(N3CCN(C)CC3)c(F)cc3c(=O)c(C(=O)O)cn1c23.C[C@H]1COc2c(N3CCN(C)CC3)c(F)cc3c(=O)c(C(=O)O)cn1c23.O target_of_assay="Enterococcus faecalis" outcome_measure=MIC reported=8
molecule="CS(=O)(=O)O.NCC1CN(c2nc3c(cc2F)c(=O)c(C(=O)O)cn3C2CC2)C/C1=N\\OCc1ccc2c(c1)OCCO2 (racemic)" target_of_assay="Enterococcus faecalis" outcome_measure=MIC reported=0.5
molecule="COc1cccc(CO/N=C2\\CN(c3nc4c(cc3F)c(=O)c(C(=O)O)cn4C3CC3)CC2CN)c1OC.CS(=O)(=O)O (racemic)" target_of_assay="Enterococcus faecalis" outcome_measure=MIC reported=0.25

----------
Test system: Klebsiella pneumoniae
assay: Antimicrobial activity against extended spectrum beta-lactamases-producing Klebsiella pneumoniae 10-3 after 18-24 hrs by two-fold serial dilution method
Type: functional
outcome.measure: MIC

molecule="CS(=O)(=O)O.NCC1CN(c2nc3c(cc2F)c(=O)c(C(=O)O)cn3C2CC2)C/C1=N\\OCc1ccccc1 (racemic)" outcome_measure=MIC reported="32 µg/mL"
molecule="COc1cc(CO/N=C2\\CN(c3nc4c(cc3F)c(=O)c(C(=O)O)cn4C3CC3)CC2CN)cc(OC)c1OC.CS(=O)(=O)O (racemic)" outcome_measure=MIC reported="> 128 µg/mL"
molecule="CS(=O)(=O)O.Cc1ccc(CO/N=C2\\CN(c3nc4c(cc3F)c(=O)c(C(=O)O)cn4C3CC3)CC2CN)cc1C (racemic)" outcome_measure=MIC reported="> 128 µg/mL"
molecule="COc1cc(CO/N=C2\\CN(c3nc4c(cc3F)c(=O)c(C(=O)O)cn4C3CC3)CC2CN)ccc1OC(F)F.CS(=O)(=O)O (racemic)" outcome_measure=MIC reported="> 128 µg/mL"
molecule="C[C@H]1COc2c(N3CCN(C)CC3)c(F)cc3c(=O)c(C(=O)O)cn1c23.C[C@H]1COc2c(N3CCN(C)CC3)c(F)cc3c(=O)c(C(=O)O)cn1c23.O [LEVOFLOXACIN]" outcome_measure=MIC reported="8 µg/mL"
molecule="CS(=O)(=O)O.NCC1CN(c2nc3c(cc2F)c(=O)c(C(=O)O)cn3C2CC2)C/C1=N\\OCc1ccc(OCc2ccccc2)cc1 (racemic)" outcome_measure=MIC reported="8 µg/mL"

----------
Tested on: Escherichia coli
assay: Antimicrobial activity against Escherichia coli 10-3 after 18-24 hrs by two-fold serial dilution method
Type: functional
outcome.measure: MIC (µg/mL)

molecule="CS(=O)(=O)O.NCC1CN(c2nc3c(cc2F)c(=O)c(C(=O)O)cn3C2CC2)C/C1=N\\OCc1ccc2c(c1)OCCO2 (racemic)" comparison_operator== reported=4
molecule="COc1cccc(OC)c1CO/N=C1\\CN(c2nc3c(cc2F)c(=O)c(C(=O)O)cn3C2CC2)CC1CN.CS(=O)(=O)O (racemic)" comparison_operator== reported=8
molecule="COc1ccc(OC)c(CO/N=C2\\CN(c3nc4c(cc3F)c(=O)c(C(=O)O)cn4C3CC3)CC2CN)c1.CS(=O)(=O)O (racemic)" comparison_operator=> reported=128
molecule="COc1ccc(CO/N=C2\\CN(c3nc4c(cc3F)c(=O)c(C(=O)O)cn4C3CC3)CC2CN)c(Cl)c1OC.CS(=O)(=O)O (racemic)" comparison_operator== reported=16
molecule="CS(=O)(=O)O.NCC1CN(c2nc3c(cc2F)c(=O)c(C(=O)O)cn3C2CC2)C/C1=N\\OCc1cc2c(cc1[N+](=O)[O-])OCO2 (racemic)" comparison_operator== reported=32
molecule="COc1ccc(CO/N=C2\\CN(c3nc4c(cc3F)c(=O)c(C(=O)O)cn4C3CC3)CC2CN)c([N+](=O)[O-])c1OC.CS(=O)(=O)O (racemic)" comparison_operator== reported=16

----------
System: Enterococcus faecalis
assay: Antimicrobial activity against Enterococcus faecalis 10-5 after 18-24 hrs by two-fold serial dilution method
Format: functional
Quick reference for MIC among some compounds
outcome.measure: MIC (µg/mL)

compound="CO/N=C1\\CN(c2nc3c(cc2F)c(=O)c(C(=O)O)cn3C2CC2)CC1CN (stereo not given) [GEMIFLOXACIN]" units_text=µg/mL reported=1
compound="CS(=O)(=O)O.NCC1CN(c2nc3c(cc2F)c(=O)c(C(=O)O)cn3C2CC2)C/C1=N\\OCc1cc2c(cc1Cl)OCO2 (racemic)" units_text=µg/mL reported=1
compound="COc1ccc(CO/N=C2\\CN(c3nc4c(cc3F)c(=O)c(C(=O)O)cn4C3CC3)CC2CN)cc1.CS(=O)(=O)O (racemic)" units_text=µg/mL reported=0.125
compound="COc1cc(CO/N=C2\\CN(c3nc4c(cc3F)c(=O)c(C(=O)O)cn4C3CC3)CC2CN)ccc1OCc1ccccc1.CS(=O)(=O)O (racemic)" units_text=µg/mL reported=4
compound="COc1cc(CO/N=C2\\CN(c3nc4c(cc3F)c(=O)c(C(=O)O)cn4C3CC3)CC2CN)c([N+](=O)[O-])cc1OC.CS(=O)(=O)O (racemic)" units_text=µg/mL reported=0.125

----------
# MIC values compiled below
System: Staphylococcus epidermidis
assay: Antimicrobial activity against extended spectrum beta-lactamases-producing methicillin-sensitive Staphylococcus epidermidis 10-11 after 18-24 hrs by two-fold serial dilution method
Type: functional
outcome.measure: MIC (µg/mL)

molecule="CS(=O)(=O)O.NCC1CN(c2nc3c(cc2F)c(=O)c(C(=O)O)cn3C2CC2)C/C1=N\\OCc1ccccc1 (racemic)" outcome_measure=MIC reported=1
molecule="COc1cccc(OC)c1CO/N=C1\\CN(c2nc3c(cc2F)c(=O)c(C(=O)O)cn3C2CC2)CC1CN.CS(=O)(=O)O (racemic)" outcome_measure=MIC reported=0.125
molecule="COc1ccc(CO/N=C2\\CN(c3nc4c(cc3F)c(=O)c(C(=O)O)cn4C3CC3)CC2CN)c(OC)c1.CS(=O)(=O)O (racemic)" outcome_measure=MIC reported=4
molecule="COc1cc(CO/N=C2\\CN(c3nc4c(cc3F)c(=O)c(C(=O)O)cn4C3CC3)CC2CN)cc(OC)c1OC.CS(=O)(=O)O (racemic)" outcome_measure=MIC reported=8
molecule="CS(=O)(=O)O.NCC1CN(c2nc3c(cc2F)c(=O)c(C(=O)O)cn3C2CC2)C/C1=N\\OCc1cc2c(cc1Cl)OCO2 (racemic)" outcome_measure=MIC reported=0.25
molecule="COc1ccc(CO/N=C2\\CN(c3nc4c(cc3F)c(=O)c(C(=O)O)cn4C3CC3)CC2CN)cc1OC.CS(=O)(=O)O (racemic)" outcome_measure=MIC reported=2
molecule="COc1ccc(CO/N=C2\\CN(c3nc4c(cc3F)c(=O)c(C(=O)O)cn4C3CC3)CC2CN)c(Cl)c1OC.CS(=O)(=O)O (racemic)" outcome_measure=MIC reported=0.25
